- Assay Procedure: Liver microsomal metabolic stability, rat liver microsomes (RLM)
- Assay Conditions: rat, liver microsomes, t1/2 (min) in RLM, 1 μM compound, 1 mg/mL microsomes, NADPH
Reported values of half-life at 1 μM for individual entries

Answered cases to consult:
COc1ncnc(C2CC2)c1-c1cc2n(n1)CCCN2Cc1ccc(-c2nc(C(F)(F)F)cn2C(C)C)cc1 | < 25 min
CCn1cc(C(F)(F)F)nc1-c1ccc([C@H](C)N2C(=O)CCn3nc(-c4c(OC(F)F)ncnc4C4CC4)nc32)cc1 | < 25 min
COc1ccnc(C2CC2)c1-c1nc2n(n1)CCC(=O)N2Cc1ccc(-c2nc(C(F)(F)F)cn2C(C)C)c(F)c1 | > 25 min

// next item, half-life at 1 μM requested
// half-life at 1 μM value for CCn1cc(C(F)(F)F)nc1-c1ccc(CN2CCCn3nc(-c4c(OC)ncnc4C4CC4)cc32)cc1F : < 25 min
